# System under test: T1, fusion protein comprising the extracellular region of human GDF15 protein and human IgG1-FC (human, UniProt Q99988 197-308, limits assumed)
# T1 construct: extracellular domain
# T1 sequence (looked up): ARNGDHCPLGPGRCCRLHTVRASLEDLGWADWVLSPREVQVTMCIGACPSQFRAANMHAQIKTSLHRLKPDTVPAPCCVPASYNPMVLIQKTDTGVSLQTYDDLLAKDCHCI
# Assay explanation: ELISA, human GDF15-hIgG1 Fc coated, HRP anti-mouse IgG
# Method: A fusion protein comprising the extracellular region of human GDF15 protein (Genbank accession number NM_004864.3) and human IgG1-FC (Genbank accession number CAC20454.1) was diluted to […] with coating solution, followed by adding to ELISA plate at 50 μl/well and incubating at 4° C. overnight. […] 2 mol/L H₂SO₄ was added to terminate the reaction, and the OD values were read on enzyme-linked immunosorbent reader. […]
Catalogue of binders with associated EC50

Binder: A5 (murine anti-50G3) (antibody, V domains shown, Purified murine hybridoma antibody) VH: QVTLKESGPGILKPSQTLSLTCSFSGFSLSTSGMGVGWIRQPSGKGLEWLAHIWWNDDKYYNPSLKSHLTISKDTSRNQVFLMITSVDTADTATYYCARGAYDFFDYWGQGTTLTVSS VL: DIVMTQAQNFMSTSVGDRVSVTCKASQNVDTNVAWYQQKPGQSPKALIYSASYRYSGVPDRFTGSGSGTDFTLTISNVQSDDLADYFCQQYNTYPYTFGGGTKLEIK
EC50: 0.0556 µg/mL
--
Binder: A2 (murine anti-53A8) (antibody, V domains shown, Purified murine hybridoma antibody; also called murine antibody 53A8) VH: QVQLKESGPGILQPSQTLSLTCSFSGFSLSTSGMGVGWIRQPSGKGLEWLAHIRWDDVKRYNPALKSRLTISKDTSSSQIFLKIASVDTADTATYYCAQMAWDWFAYWGQGTLVTVSA VL: DIVMTQAQKFMSTSVGDRVSVTCKASQNVDTDVAWYQQKPGQSPKALIYSASYRYSGVPDRFTGSGSGTDFTLTITNVQSEDLAEYFCHQYNSYPTFGGGTKLEIK
EC50: 0.0378 µg/mL
--
Binder: A6 (murine anti-53D10) (antibody, V domains shown, Purified murine hybridoma antibody) VH: QVTLKESGPGIVQPSQPFRLTCTFSGFSLSTSGIGITWIRQPSGKGLEWLATIWWDDDNRYNPSLKSRLTVSKDTSNNQAFLNIITVETADTAIYYCVQSAWDWFAYWGQGTLVTVSA VL: DIVMTQSQKFMSTSVGDRVSVTCKASQNVGTNVAWYQQKSGQSPKALIYSASYRNSGVPDRFTGSGSGTDFTLTISNVESEDLAEYFCQQYNSHPVTFGGGTKLEIK
EC50: 0.0602 µg/mL
--
Binder: A1 (murine anti-53E5) (antibody, V domains shown, Purified murine hybridoma antibody) VH: QVQLKESGPGILQPSQTLSLTCSFSGFSLSTSGMGVGWIRQPSGKGLEWLAHILWDDVKRYNPALKSRLTISKDSSNSQIFLKIASVDTADTATYYCVQMAWDWFAYWGQGTLVTVSA VL: DIVMTQAQKFMSTSVEDRVSVTCKASQNVDTNVAWYQQKPGQSPKALIYSASYRSSGVPDRFTGSGSGTDFTLTISNVQSEDLAEYFCQQYHSYPTFGGGTKLEIK
EC50: 0.0455 µg/mL

This collection of values is drawn from patent US20250092124A1.
